assay: Toxicity in ip dosed mouse; assay type: organism-based; details: in vivo
value kind: LD50 (mg/kg)
Form entry: value (mg/kg) — number only.

`COc1ccc(C(=O)O[C@H]2CC[C@@]3(C)[C@@H]4CC[C@H]5[C@]6(O)C[C@H](O)[C@@]7(O)[C@@H](CN8C[C@@H](C)CC[C@H]8[C@@]7(C)O)[C@]6(O)C[C@@]53O[C@]24O)cc1OC` has a reported LD50 of 9

Sourced from ChEMBL document CHEMBL2021763
